# measurement.notes: Toxicity liver stage against HepG2, at 10uM
# Format: cell-based
# Set-up: test concentration 10 uM, cell line HepG2-A16-CD81EGFP
# test.conditions: human, HepG2-A16-CD81EGFP cells; read-out: INHIBITION
Listed here are compounds together with their documented cytotoxicity at 10 µM.
Your answer should be a plain number; it is taken to be in %.

Worked examples follow.
compound: CN1CC2(CCN(C(=O)CCc3nc4cccnc4n3C)C2)OC1=O (stereo unspecified)
measurement.unit: %
cytotoxicity at 10 µM: 1.56
--
compound: CCc1ncc2c(n1)CN(Cc1nnc(C)o1)CC2
measurement.unit: %
cytotoxicity at 10 µM: -12.1
--
compound: CC(C)OCCCNC(=O)N(C)C(C)c1ccc(-n2cncn2)cc1 (stereo unspecified)
measurement.unit: %
cytotoxicity at 10 µM: 4.08
--
compound: CCN1CCN(C(=O)CCC2CCN(C(=O)CCSC)CC2)CC1
measurement.unit: %
cytotoxicity at 10 µM: -1.56

May I ask what cytotoxicity at 10 µM has been recorded for c1cnc2[nH]c(C3CCNCC3)c(CN3CCOCC3)c2c1 ? 1.82

May I ask what cytotoxicity at 10 µM has been recorded for O=C(Nc1cccc(CNCc2cccs2)c1)C1CC1 ? -8.3

----------
Listed here are molecules together with their documented cytotoxicity at 10 µM.
# measurement.notes: Toxicity liver stage against HepG2, at 10uM
# Type: cell-based
# Set-up: test concentration 10 uM, cell line HepG2-A16-CD81EGFP
# test.conditions: human, HepG2-A16-CD81EGFP cells; read-out: INHIBITION
Your answer should be a plain number; it is taken to be in %.

Worked examples follow.
smiles: N#Cc1cc(F)ccc1NCc1ccc(Cn2cncn2)cc1
quantity.name: cytotoxicity at 10 µM
assay.value: 8.75
--
smiles: CS(=O)(=O)N1CCN(C(=O)CCn2cccn2)CC1
quantity.name: cytotoxicity at 10 µM
assay.value: -8.39
--
smiles: CCC(CC)c1cc(C(=O)N2CCN(CC(N)=O)CC2)on1
quantity.name: cytotoxicity at 10 µM
assay.value: -4.97
--
smiles: COCC(=O)NCC[C@H]1CC(C)(C)Oc2ccccc21
quantity.name: cytotoxicity at 10 µM
assay.value: 3.3
--
smiles: O=C(NCCCN1CCOCC1)c1ccn(COc2ccccc2)n1
quantity.name: cytotoxicity at 10 µM
assay.value: 5.5

May I ask what cytotoxicity at 10 µM has been recorded for O=C(CN1CCC(c2ccnn2CCO)CC1)NCC1CC1 ? -3.25

----------
Listed here are compounds together with their documented cytotoxicity at 10 µM.
# measurement.notes: Toxicity liver stage against HepG2, at 10uM
# Type: cell-based
# Set-up: test concentration 10 uM, cell line HepG2-A16-CD81EGFP
# test.conditions: human, HepG2-A16-CD81EGFP cells; read-out: INHIBITION
Kindly write the number and append the unit.

compound: Cc1ccccc1OCCCC(=O)NCc1ccnc(O)c1
quantity.name: cytotoxicity at 10 µM
assay.value: 5.65%

compound: CN(C)CCNC(=O)c1cc(-c2cnc(N3CCCC3)nc2)cn1C
quantity.name: cytotoxicity at 10 µM
assay.value: 15.7%

compound: CN(C)Cc1nnc(C2CCN(c3ncccn3)CC2)n1C1CC1
quantity.name: cytotoxicity at 10 µM
assay.value: -1.26%

compound: CN(Cc1nnc2n1CCC2)C(=O)CCc1ccc2c(c1)OCO2
quantity.name: cytotoxicity at 10 µM
assay.value: -14%

compound: COc1ccc(C(=O)N2CCCC(CNS(C)(=O)=O)C2)cc1F (configuration not stated)
quantity.name: cytotoxicity at 10 µM
assay.value: -5.45%

compound: Cn1ccnc1COc1ccc(CSc2nnnn2C)cc1
quantity.name: cytotoxicity at 10 µM
assay.value: -0.613%

We next turn to a different compound, shown below.
May I ask what cytotoxicity at 10 µM has been recorded for COc1ccc(-n2ccc(C(=O)N3CCC(C(N)=O)C3)n2)cc1 (configuration not stated) ? -6.04%
